Data origin: the NIST ThermoML archive (doi:10.1016/j.jct.2012.09.017)

# PROTOCOL NOTES: activity coefficient (dimensionless); of the first substance listed, at infinite dilution; xn = mol fraction of the nth substance listed
# CONDITION SET: 343.15 K; 101 kPa; Liquid; Chromatography; x1 = 0
Assign class by activity coefficient: not lower than 0.8 means Fulfilled; lower than 0.8 means Not fulfilled.

- MOLECULE: "c1ccsc1 [thiophene] + CCCC[N+]1(C)CCCC1.O=C1O[B-]2(OC1=O)OC(=O)C(=O)O2"
  CLASSIFICATION: "Fulfilled"
- MOLECULE: "C[N+](=O)[O-] [nitromethane] + CCCC[N+]1(C)CCCC1.O=C1O[B-]2(OC1=O)OC(=O)C(=O)O2"
  CLASSIFICATION: "Not fulfilled"
- MOLECULE: "CCC(C)=O [butanone] + CCCC[N+]1(C)CCCC1.N#C[B-](C#N)(C#N)C#N"
  CLASSIFICATION: "Not fulfilled"
- MOLECULE: "COC(C)(C)C [2-methoxy-2-methylpropane] + CCCC[N+]1(C)CCCC1.O=C1O[B-]2(OC1=O)OC(=O)C(=O)O2"
  CLASSIFICATION: "Fulfilled"
- MOLECULE: "CCCCCCCC [octane] + CCCC[N+]1(C)CCCC1.N#C[B-](C#N)(C#N)C#N"
  CLASSIFICATION: "Fulfilled"
- MOLECULE: "CC#N [acetonitrile] + CCCC[N+]1(C)CCCC1.O=C1O[B-]2(OC1=O)OC(=O)C(=O)O2"
  CLASSIFICATION: "Not fulfilled"
- MOLECULE: "CC(C)=O [acetone] + CCCC[N+]1(C)CCCC1.O=C1O[B-]2(OC1=O)OC(=O)C(=O)O2"
  CLASSIFICATION: "Not fulfilled"

----------
Items are presented alongside their recorded activity coefficient.
# PROTOCOL NOTES: activity coefficient (dimensionless); of the first substance listed, at infinite dilution; xn = mol fraction of the nth substance listed
# CONDITION SET: 318.15 K; 101 kPa; Liquid; Chromatography; x1 = 0

- MOLECULE: "CO [methanol] + CCCC[N+]1(C)CCCC1.N#C[B-](C#N)(C#N)C#N"
  activity coefficient: 1.03
- MOLECULE: "COCCOC [1,2-dimethoxyethane] + CCCC[N+]1(C)CCCC1.N#C[B-](C#N)(C#N)C#N"
  activity coefficient: 0.506
- MOLECULE: "Cc1cccc(C)c1 [1,3-dimethylbenzene] + CCCC[N+]1(C)CCCC1.N#C[B-](C#N)(C#N)C#N"
  activity coefficient: 1.63
- MOLECULE: "COC(C)=O [methyl ethanoate] + CCCC[N+]1(C)CCCC1.N#C[B-](C#N)(C#N)C#N"
  activity coefficient: 0.671
- MOLECULE: "c1ccccc1 [benzene] + CCCC[N+]1(C)CCCC1.N#C[B-](C#N)(C#N)C#N"
  activity coefficient: 0.833
- MOLECULE: "CCC(C)=O [butanone] + CCCC[N+]1(C)CCCC1.N#C[B-](C#N)(C#N)C#N"
  activity coefficient: 0.546
- MOLECULE: "C[N+](=O)[O-] [nitromethane] + CCCC[N+]1(C)CCCC1.N#C[B-](C#N)(C#N)C#N"
  activity coefficient: 0.427
- MOLECULE: "Cc1ccccc1 [toluene] + CCCC[N+]1(C)CCCC1.N#C[B-](C#N)(C#N)C#N"
  activity coefficient: 1.13
